Tested on: primary human adipose stem cells (hASCs)
assayExplanation: Cell count assay in control cells (human ASCs)
Format: cell-based
experimentalConditions: Homo sapiens, 48 h; two days of exposure; 300 is the highest concentration tested
pIC50: −log10 of the molar value.
quantity: pIC50

compound | measuredOn | pIC50
CC(=O)OCC1OC(OC(C)=O)[C@@H](NC(=O)c2ccccc2)[C@@H](OC(C)=O)[C@H]1OC(C)=O (some centres unmarked) | primary human adipose stem cells (hASCs) | < 3.52

Okay, now this compound:
Requested read-out: pIC50. Entry: CC(=O)OCC1OC(OC(C)=O)[C@@H](NC(=O)c2ccccc2)[C@@H](OC(C)=O)[C@@H]1OC(C)=O (some centres unmarked)
< 3.52

Values were extracted from patent US11827663B2.
